- assay.system: mouse TMEM16A mutant I640A (Mus musculus, UniProt Q8BHY3, I640A)
- Construct: expressed in transfected cells; host or cells: HEK293T
- Sequence (Q8BHY3 whole entry I640A): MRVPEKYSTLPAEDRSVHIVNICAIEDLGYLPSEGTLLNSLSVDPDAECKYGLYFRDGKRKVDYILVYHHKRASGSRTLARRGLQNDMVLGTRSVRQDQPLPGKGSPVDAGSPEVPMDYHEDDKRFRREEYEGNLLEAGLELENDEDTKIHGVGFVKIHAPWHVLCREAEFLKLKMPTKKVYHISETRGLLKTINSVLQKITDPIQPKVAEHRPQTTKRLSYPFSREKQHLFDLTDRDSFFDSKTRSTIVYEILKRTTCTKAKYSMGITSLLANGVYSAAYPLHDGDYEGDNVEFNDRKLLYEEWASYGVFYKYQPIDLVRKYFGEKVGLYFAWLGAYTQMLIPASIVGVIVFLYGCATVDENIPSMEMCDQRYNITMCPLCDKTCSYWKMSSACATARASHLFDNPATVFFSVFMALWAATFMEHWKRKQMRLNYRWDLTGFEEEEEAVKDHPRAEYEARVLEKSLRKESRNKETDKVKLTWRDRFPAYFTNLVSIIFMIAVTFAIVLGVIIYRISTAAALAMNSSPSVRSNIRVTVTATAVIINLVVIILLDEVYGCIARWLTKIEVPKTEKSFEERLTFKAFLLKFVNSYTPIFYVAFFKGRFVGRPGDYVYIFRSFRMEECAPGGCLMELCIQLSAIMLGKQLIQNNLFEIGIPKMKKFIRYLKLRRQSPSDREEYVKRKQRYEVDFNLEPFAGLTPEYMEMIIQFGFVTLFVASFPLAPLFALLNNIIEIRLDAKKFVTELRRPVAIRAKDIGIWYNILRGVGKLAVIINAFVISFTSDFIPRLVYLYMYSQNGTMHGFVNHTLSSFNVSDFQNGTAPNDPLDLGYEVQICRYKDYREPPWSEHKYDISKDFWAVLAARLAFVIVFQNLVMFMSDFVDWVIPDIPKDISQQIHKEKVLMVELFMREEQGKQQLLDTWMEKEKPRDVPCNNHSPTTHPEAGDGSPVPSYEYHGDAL
- experimental.protocol: Inside-out patch recording of 1PBC block, mutant I640A
- Assay type: cell-based
- condition.context: 20 mV; 15 µM Ca2+
- Description: HEK293T cells (ATCC CRL-1573) were maintained in Dulbecco’s modified Eagle’s medium (DMEM; Sigma-Aldrich) supplemented with 10 U ml^−1 penicillin, 0.1 mg ml^−1 streptomycin (Sigma-Aldrich), 2 mM L-glutamine (Sigma-Aldrich), and 10% FBS (Sigma-Aldrich) in a humidified atmosphere containing 5% CO2 at 37 °C. […]
measured.parameter: pIC50
# pIC50 = -log10(concentration in molar units)

Measured pIC50, `N#Cc1c(C(F)(F)F)cc(O)n2c1nc1ccccc12` : 4.56

---

- assay.system: mouse TMEM16A mutant K603Q (Mus musculus, UniProt Q8BHY3, K603Q)
- Construct: expressed in transfected cells; host or cells: HEK293T
- Sequence (Q8BHY3 whole entry K603Q): as the sequence (Q8BHY3 whole entry I640A) above, with K603Q, A640I counted along it
- experimental.protocol: Inside-out patch recording of 1PBC block, mutant K603Q
- Type: cell-based
- condition.context: K603Q; V 60 mV
measured.parameter: IC50 (µM)
The reply should be a number in µM, with the unit left off.

Measured IC50, `N#Cc1c(C(F)(F)F)cc(O)n2c1nc1ccccc12` : 196

---

- assay.system: mouse TMEM16A mutant G558P (Mus musculus, UniProt Q8BHY3, G558P)
- Construct: expressed in transfected cells; host or cells: HEK293T
- Sequence (Q8BHY3 whole entry G558P): as the sequence (Q8BHY3 whole entry I640A) above, with G558P, A640I counted along it
- experimental.protocol: Inside-out patch recording of 1PBC block, mutant G558P
- Type: cell-based
- condition.context: G558P; V 20 mV
measured.parameter: pIC50
# pIC50 = -log10(concentration in molar units)

Measured pIC50, N#Cc1c(C(F)(F)F)cc(O)n2c1nc1ccccc12 [1PBC] : 5.31

---

- assay.system: mouse TMEM16A mutant N546A (Mus musculus, UniProt Q8BHY3, N546A)
- Construct: expressed in transfected cells; host or cells: HEK293T
- Sequence (Q8BHY3 whole entry N546A): as the sequence (Q8BHY3 whole entry I640A) above, with N546A, A640I counted along it
- experimental.protocol: Inside-out patch recording of 1PBC block, mutant N546A
- Type: cell-based
- condition.context: N546A; V 80 mV
measured.parameter: pIC50
# pIC50 = -log10(concentration in molar units)

Measured pIC50, `N#Cc1c(C(F)(F)F)cc(O)n2c1nc1ccccc12` : 6.62

---

- assay.system: mouse TMEM16A mutant K603Q (Mus musculus, UniProt Q8BHY3, K603Q)
- Construct: expressed in transfected cells; host or cells: HEK293T
- experimental.protocol: Inside-out patch recording of 1PBC block, mutant K603Q
- Format: cell-based
- condition.context: -140 mV; 4 µM Ca2+
measured.parameter: IC50 (µM)
The reply should be a number in µM, with the unit left off.

Measured IC50, N#Cc1c(C(F)(F)F)cc(O)n2c1nc1ccccc12 [1PBC] : 216

---

- assay.system: mouse TMEM16A mutant T518A (Mus musculus, UniProt Q8BHY3, T518A)
- Construct: expressed in transfected cells; host or cells: HEK293T
- Sequence (Q8BHY3 whole entry T518A): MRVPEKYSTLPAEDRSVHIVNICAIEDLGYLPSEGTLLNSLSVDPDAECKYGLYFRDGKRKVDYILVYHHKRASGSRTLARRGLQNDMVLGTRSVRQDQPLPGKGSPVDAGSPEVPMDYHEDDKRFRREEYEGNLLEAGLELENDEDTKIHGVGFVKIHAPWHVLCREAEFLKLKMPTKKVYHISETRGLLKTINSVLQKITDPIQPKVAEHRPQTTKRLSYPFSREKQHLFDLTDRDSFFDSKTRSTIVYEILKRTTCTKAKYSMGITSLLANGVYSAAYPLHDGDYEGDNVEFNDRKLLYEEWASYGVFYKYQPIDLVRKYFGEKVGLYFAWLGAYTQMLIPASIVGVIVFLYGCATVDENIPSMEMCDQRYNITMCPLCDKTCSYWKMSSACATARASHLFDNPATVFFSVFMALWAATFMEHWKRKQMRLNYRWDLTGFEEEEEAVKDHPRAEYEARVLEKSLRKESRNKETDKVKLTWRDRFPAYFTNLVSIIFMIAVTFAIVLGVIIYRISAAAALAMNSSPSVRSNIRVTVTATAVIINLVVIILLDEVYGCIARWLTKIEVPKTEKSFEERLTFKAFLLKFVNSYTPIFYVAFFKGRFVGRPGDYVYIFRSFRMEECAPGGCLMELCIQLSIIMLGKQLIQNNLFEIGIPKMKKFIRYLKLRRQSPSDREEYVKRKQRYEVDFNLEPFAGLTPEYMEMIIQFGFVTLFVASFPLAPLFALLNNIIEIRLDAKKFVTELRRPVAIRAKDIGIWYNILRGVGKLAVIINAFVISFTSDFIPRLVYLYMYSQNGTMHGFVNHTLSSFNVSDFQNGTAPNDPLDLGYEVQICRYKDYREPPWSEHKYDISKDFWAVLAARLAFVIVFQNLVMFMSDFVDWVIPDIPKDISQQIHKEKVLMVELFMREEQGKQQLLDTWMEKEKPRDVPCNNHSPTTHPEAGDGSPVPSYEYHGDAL
- experimental.protocol: Inside-out patch recording of 1PBC block, mutant T518A
- Assay type: cell-based
- condition.context: -60 mV; 2 µM Ca2+
measured.parameter: pIC50
# pIC50 = -log10(concentration in molar units)

Measured pIC50, `N#Cc1c(C(F)(F)F)cc(O)n2c1nc1ccccc12` : 4.91
